# Test system: 885724-159-R-J1-PDC complex spheroid viability;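 further: spheroids exposed to compounds for 7 days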
# assay method text: Anticancer human tumor 885724-159-R-J1-PDC patient-derived pancreatic adenocarcinoma cell line growth inhibition [POLQ]
# conditions: second compound 10 µM; first compound 0.0316 µM; hits give low values
readout type: viability, T/C (%)
Write down the numeric answer in % and omit the unit.

Query :: Fill in the blank: the reported viability, T/C of O=C(c1cc(Cc2n[nH]c(=O)c3ccccc23)ccc1F)N1CCN(C(=O)C2CC2)CC1 + COC1C(OC(N)=O)C(O)C(Oc2ccc3c(O)c(NC(=O)c4ccc(O)c(CC=C(C)C)c4)c(=O)oc3c2C)OC1(C)C is ____.
Result :: 96.3

Query :: Fill in the blank: the reported viability, T/C of C=CC(=O)N1CCN(c2nc(=O)n(-c3c(C)ccnc3C(C)C)c3nc(-c4c(O)cccc4F)c(F)cc23)C(C)C1 (stereo not given) + COC1C(OC(N)=O)C(O)C(Oc2ccc3c(O)c(NC(=O)c4ccc(O)c(CC=C(C)C)c4)c(=O)oc3c2C)OC1(C)C is ____.
Result :: 96

Query :: Fill in the blank: the reported viability, T/C of CCc1cc2c(N3CCc4c(cc(Cn5ccnc5)cc4-c4cn(C)nc4C(F)(F)F)C3=O)cc(C)nc2c(OC)n1 + Cc1cccc(N(C)C(=O)C2C(O)CCN2c2nc(C)cc(C(F)(F)F)c2C#N)c1 is ____.
Result :: 83.9

Query :: Fill in the blank: the reported viability, T/C of CNCc1ccc(-c2[nH]c3cc(F)cc4c3c2CCNC4=O)cc1 + COC1C(OC(N)=O)C(O)C(Oc2ccc3c(O)c(NC(=O)c4ccc(O)c(CC=C(C)C)c4)c(=O)oc3c2C)OC1(C)C is ____.
Result :: 102

Query :: Fill in the blank: the reported viability, T/C of C#Cc1c(F)ccc2cc(O)cc(-c3ncc4c(N5CC6CCC(C5)N6)nc(OCC56CCCN5CC(F)C6)nc4c3F)c12 (stereo not given) + Cc1cccc(N(C)C(=O)C2C(O)CCN2c2nc(C)cc(C(F)(F)F)c2C#N)c1 is ____.
Result :: 93.8

Query :: Fill in the blank: the reported viability, T/C of O=c1[nH]cc(F)c(=O)[nH]1 + COC1C(OC(N)=O)C(O)C(Oc2ccc3c(O)c(NC(=O)c4ccc(O)c(CC=C(C)C)c4)c(=O)oc3c2C)OC1(C)C is ____.
Result :: 113

Query :: Fill in the blank: the reported viability, T/C of CC(C)n1c(=O)n(C)c2cnc3cc(F)c(-c4ccc(OCCCN5CCCCC5)nc4)cc3c21 + COC1C(OC(N)=O)C(O)C(Oc2ccc3c(O)c(NC(=O)c4ccc(O)c(CC=C(C)C)c4)c(=O)oc3c2C)OC1(C)C is ____.
Result :: 100

Query :: Fill in the blank: the reported viability, T/C of C=CCn1c(=O)c2cnc(Nc3ccc(N4CCN(C)CC4)cc3)nc2n1-c1cccc(C(C)(C)O)n1 + Nc1ccc(C#CCN(C(=O)Cc2ncc(C(F)(F)F)cc2C(F)(F)F)c2ccc(F)cc2)nn1 is ____.
Result :: 98.5

Query :: Fill in the blank: the reported viability, T/C of CC1COCCN1c1cc(-c2ccnn2C)c2ccnc(-c3ccn[nH]3)c2n1 (stereo not given) + Nc1ccc(C#CCN(C(=O)Cc2ncc(C(F)(F)F)cc2C(F)(F)F)c2ccc(F)cc2)nn1 is ____.
Result :: 106

Query :: Fill in the blank: the reported viability, T/C of COc1cc2cc(C(=O)CCC(=O)O)sc2cc1OC + Nc1ccc(C#CCN(C(=O)Cc2ncc(C(F)(F)F)cc2C(F)(F)F)c2ccc(F)cc2)nn1 is ____.
Result :: 107
